# EXPERIMENTAL DETAILS: Half life evaluated in Total Cell Extract(TCE) for determination 2.
# Format: ADME
READOUT KIND: half-life (h)
Numbers only, in h.

The molecule listed as Cc1cn(C2CC(N=[N+]=[N-])C(COP(=O)(O)OCCS)O2)c(=O)[nH]c1=O (stereo unspecified) shows half-life equal to 9

###

# Test system: CEM/TK- (Homo sapiens)
# EXPERIMENTAL DETAILS: Antiviral activity in CEM/TK cell line infected with HIV-1 and Concentration required to inhibit the replication of HIV-1 by 50% was determined
Hi there, I'd appreciate the recorded EC50 for every entry that follows.

>>> print(df.to_string())
                                   molecule  measured_result
0  Cc1cn(C2CC(N=[N+]=[N-])C(COP(=O)(OCOC(=O)C(C)(C)C)OCOC(=O)C(C)(C)C)O2)c(=O)[nH]c1=O (centres undefined)           255 nM
1  CC(=O)SCCOP(=O)(OCCSC(C)=O)OCC1OC(n2cc(C)c(=O)[nH]c2=O)CC1N=[N+]=[N-] (centres undefined)            49 nM
2  Cc1cn([C@H]2C[C@H](N=[N+]=[N-])[C@@H](CO)O2)c(=O)[nH]c1=O      > 100000 nM

// below: EC50 requested for another molecule
The molecule listed as Cc1cn(C2CC(N=[N+]=[N-])C(COP(=O)(OCCSC(=O)C(C)(C)C)OCCSC(=O)C(C)(C)C)O2)c(=O)[nH]c1=O (centres undefined) shows EC50 equal to 450 nM

###

# EXPERIMENTAL DETAILS: Half life evaluated in Culture Medium(CM)
# Type: ADME
# CONDITION DESCRIPTION: culture medium (CM)
READOUT KIND: half-life (h)
Numbers only, in h.

In [3]: df
Out[3]:
                                   molecule  quantity_unit  measured_result
0  Cc1cn(C2CC(N=[N+]=[N-])C(COP(=O)(OCCSC(=O)C(C)C)OCCSC(=O)C(C)C)O2)c(=O)[nH]c1=O (configuration not stated)              h                9
1  Cc1cn(C2CC(N=[N+]=[N-])C(COP(=O)(O)OCCSC(=O)C(C)C)O2)c(=O)[nH]c1=O (configuration not stated)              h             12.3
2  Cc1cn([C@H]2C[C@H](N=[N+]=[N-])[C@@H](COP(=O)(O)O)O2)c(=O)[nH]c1=O [AZIDOTHYMIDINE MONOPHOSPHATE]              h               50
3  Cc1cn(C2CC(N=[N+]=[N-])C(COP(=O)(OCCSC(=O)C(C)(C)C)OCCSC(=O)C(C)(C)C)O2)c(=O)[nH]c1=O (configuration not stated)              h              103
4  CC(=O)SCCOP(=O)(OCCSC(C)=O)OCC1OC(n2cc(C)c(=O)[nH]c2=O)CC1N=[N+]=[N-] (configuration not stated)              h                9

# map each molecule to its half-life
1. Cc1cn(C2CC(N=[N+]=[N-])C(COP(=O)(O)OCCSC(=O)C(C)(C)C)O2)c(=O)[nH]c1=O (configuration not stated)
2. CC(=O)SCCOP(=O)(O)OCC1OC(n2cc(C)c(=O)[nH]c2=O)CC1N=[N+]=[N-] (configuration not stated)

A:
21.3
8.9
